ASSAYED TARGET: human ether-à-go-go-related gene (hERG) potassium channel (human, UniProt Q12809);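 further: peak tail current of the secondary pulse compared with the same well before compound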
Sequence (Q12809 whole entry, looked up): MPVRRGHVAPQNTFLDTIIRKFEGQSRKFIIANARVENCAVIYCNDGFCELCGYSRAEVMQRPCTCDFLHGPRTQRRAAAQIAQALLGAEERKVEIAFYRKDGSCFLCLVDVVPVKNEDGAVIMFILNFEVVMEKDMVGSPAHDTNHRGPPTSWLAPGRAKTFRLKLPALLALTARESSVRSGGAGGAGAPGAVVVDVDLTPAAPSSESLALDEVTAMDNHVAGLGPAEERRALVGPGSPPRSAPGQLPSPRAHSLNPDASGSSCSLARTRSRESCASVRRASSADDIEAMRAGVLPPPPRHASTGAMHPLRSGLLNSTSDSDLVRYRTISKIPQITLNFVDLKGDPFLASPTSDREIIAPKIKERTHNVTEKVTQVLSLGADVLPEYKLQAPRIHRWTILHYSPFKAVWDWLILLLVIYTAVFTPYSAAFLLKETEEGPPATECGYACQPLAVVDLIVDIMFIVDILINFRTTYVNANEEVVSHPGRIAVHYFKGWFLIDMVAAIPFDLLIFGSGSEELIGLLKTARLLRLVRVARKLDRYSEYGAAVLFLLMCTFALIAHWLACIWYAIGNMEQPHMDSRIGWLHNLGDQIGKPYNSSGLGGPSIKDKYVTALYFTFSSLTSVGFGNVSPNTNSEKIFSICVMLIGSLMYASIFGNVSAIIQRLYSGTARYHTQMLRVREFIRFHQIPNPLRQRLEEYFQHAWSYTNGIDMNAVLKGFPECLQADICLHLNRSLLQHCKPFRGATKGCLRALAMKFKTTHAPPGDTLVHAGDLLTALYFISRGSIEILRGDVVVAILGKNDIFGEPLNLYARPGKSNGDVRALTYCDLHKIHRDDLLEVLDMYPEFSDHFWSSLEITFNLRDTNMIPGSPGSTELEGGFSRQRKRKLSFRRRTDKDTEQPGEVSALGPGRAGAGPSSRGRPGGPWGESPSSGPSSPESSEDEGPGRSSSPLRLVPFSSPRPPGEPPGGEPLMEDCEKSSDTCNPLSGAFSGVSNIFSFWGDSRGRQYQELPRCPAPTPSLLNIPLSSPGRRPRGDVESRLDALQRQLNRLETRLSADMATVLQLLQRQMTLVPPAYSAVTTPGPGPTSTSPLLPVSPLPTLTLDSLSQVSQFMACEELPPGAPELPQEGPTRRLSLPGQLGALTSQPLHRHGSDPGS
ASSAY: primary screen, population patch clamp on CHO cells stably expressing hERG; higher = less effect of the substance
About 14,000 (4.5%) of roughly 310,000 compounds showed an effect of 50% or more. The effect is printed as a negative number. Many of the other results were omitted from the sample, so strong results are more common in it than they were.
MEASUREMENT NAME: hERG current change (%, negative = inhibition) at 10uM (%)

[
  {
    "COMPOUND": "COC(=O)C1=C(C)N(Cc2ccccc2)C(=O)/C1=C\\c1ccco1",
    "ASSAYED TARGET": "human ether-à-go-go-related gene (hERG) potassium channel (human, UniProt Q12809)",
    "UNIT TAG": "%",
    "MEASURED NUMBER": 2.06
  },
  {
    "COMPOUND": "Cc1ccc(OCCCC(=O)Nc2cc(Cl)ccc2-n2cncn2)cc1",
    "ASSAYED TARGET": "human ether-à-go-go-related gene (hERG) potassium channel (human, UniProt Q12809)",
    "UNIT TAG": "%",
    "MEASURED NUMBER": -22.4
  },
  {
    "COMPOUND": "Cl.Clc1ccccc1CNC1CN2CCC1CC2 (stereo not shown)",
    "ASSAYED TARGET": "human ether-à-go-go-related gene (hERG) potassium channel (human, UniProt Q12809)",
    "UNIT TAG": "%",
    "MEASURED NUMBER": -3.27
  },
  {
    "COMPOUND": "CCOC(=O)C1CCN(CCC(=O)Nc2cccc(C)c2)CC1.Cl",
    "ASSAYED TARGET": "human ether-à-go-go-related gene (hERG) potassium channel (human, UniProt Q12809)",
    "UNIT TAG": "%",
    "MEASURED NUMBER": -66.8
  },
  {
    "COMPOUND": "CCN(CC(=O)NCc1ccc(F)cc1)CC(O)COCc1cccc(OC)c1 (stereo not shown)",
    "ASSAYED TARGET": "human ether-à-go-go-related gene (hERG) potassium channel (human, UniProt Q12809)",
    "UNIT TAG": "%",
    "MEASURED NUMBER": -60.6
  },
  {
    "COMPOUND": "COC(=O)C1=C(C)N(Cc2cccnc2)C(=O)/C1=C\\c1cccs1",
    "ASSAYED TARGET": "human ether-à-go-go-related gene (hERG) potassium channel (human, UniProt Q12809)",
    "UNIT TAG": "%",
    "MEASURED NUMBER": -89
  },
  {
    "COMPOUND": "CCOc1ccccc1NC(=O)c1ccc(S(=O)(=O)N2CCOCC2)cc1",
    "ASSAYED TARGET": "human ether-à-go-go-related gene (hERG) potassium channel (human, UniProt Q12809)",
    "UNIT TAG": "%",
    "MEASURED NUMBER": -2.46
  },
  {
    "COMPOUND": "COc1ccccc1NNC(=O)C(O)(c1ccccc1OC)c1ccccc1OC",
    "ASSAYED TARGET": "human ether-à-go-go-related gene (hERG) potassium channel (human, UniProt Q12809)",
    "UNIT TAG": "%",
    "MEASURED NUMBER": 20.2
  },
  {
    "COMPOUND": "COc1cccc(CN(C)CC(=O)NCc2ccc(C)cc2)c1.O=C(O)C(=O)O",
    "ASSAYED TARGET": "human ether-à-go-go-related gene (hERG) potassium channel (human, UniProt Q12809)",
    "UNIT TAG": "%",
    "MEASURED NUMBER": -49.3
  },
  {
    "COMPOUND": "Cc1cccc(-n2c(C)cc(/C=N\\NC(=O)c3ccco3)c2C)c1",
    "ASSAYED TARGET": "human ether-à-go-go-related gene (hERG) potassium channel (human, UniProt Q12809)",
    "UNIT TAG": "%",
    "MEASURED NUMBER": -12.8
  }
]
